Hello, the source for this data is ChEMBL document CHEMBL1201862, in case you need it.

- Test system: MDA-N
- TEST_DETAILS: NCI tumour cell line growth inhibition, 48 h
Active and inactive are the calls of the source. Cut-off read from the data, not from the text of the source: active = GI50 up to about 1.1 µM and inactive = higher.
Select the correct class. Options are active, inactive and nothing else.

Solved entries (count: 8):
- N#CCCN(CCCN(C(=O)Nc1ccc(NC(=O)N(CCCN(CCC#N)C(N)=O)c2ccccc2)cc1)c1ccccc1)C(N)=O: inactive
- Cc1c(NC(=O)CCCl)c(=O)oc2c(C)c3occc(=O)c3cc12: inactive
- CCOC(=O)c1c(SC(=O)c2ccc(C(C)(C)C)cc2)n(-c2ccccc2)c(=S)n(-c2ccccc2)c1=O: inactive
- COc1cc(C(CN)N(C)C)cc(OC)c1OC (stereo not drawn): inactive
- C/C(=N\c1ccc(Cl)cc1)c1ccncc1: inactive
- CNC(=O)c1nc[nH]c1/N=N/N(C)N: inactive
- S=C(S)NCC1CCC(CNC(=S)S)CC1 (stereo not drawn): inactive
- C#CCCOC(=O)CC1=C(C)/C(=C/c2ccc([S+](C)[O-])cc2)c2ccc(F)cc21 (stereo not drawn): inactive

IN: Please state the recorded outcome for this compound: Cc1ccc2c(c1)S(=O)(=O)c1ccc3ccccc3c1N2
OUT: inactive

IN: One more compound: N=C(N)C(/N=N\c1ccccc1)C(N)=O (stereo not drawn)
OUT: inactive

IN: One more compound: Nc1nc2c(c(=O)[nH]1)C(c1ccccc1)CC(=O)N2 (stereo not drawn)
OUT: inactive
